assayed.system: T1, BMP-12 (UniProt Q7Z4P5 322-450, limits assumed)
T1 construct: also called BMP12/GDF7
T1 sequence (looked up): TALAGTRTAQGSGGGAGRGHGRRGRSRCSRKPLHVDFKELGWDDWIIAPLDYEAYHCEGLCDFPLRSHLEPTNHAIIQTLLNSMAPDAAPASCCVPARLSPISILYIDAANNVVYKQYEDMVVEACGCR
assay.info: peptide resin, filter plate; load 5: 25 mM HEPES pH 7.0
No end group written: not given here.
endpoint.name: Flow-through K

- Ac-LYVSDVGWNDWIVK (not fully specified (residue 3); printed as Ac-LYV**SDVGWNDWIVK; also: ** after V3 not explained) [BMP2 C-trunc_2 peptide 746]: 6

P: Ac-VAPPGYHAFYSHGEK [BMP2 N-trunc_2 peptide 745]
Q: Ac-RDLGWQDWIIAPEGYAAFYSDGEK [BMP5 peptide 748]
I need your help: which of the pair P , Q has higher Flow-through K? To answer, give the label that identifies your chosen option.
Q
(Q: 23, P: 1)

P: Ac-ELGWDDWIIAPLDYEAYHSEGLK [BMP12 N-trun_1S peptide 749]
Q: Ac-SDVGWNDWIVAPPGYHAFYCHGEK [BMP2 N-trun peptide 750]
Smaller Flow-through K value? Options are P and Q To answer, give the label that identifies your chosen option.
Q
(Q: 2, P: 9)

I: Ac-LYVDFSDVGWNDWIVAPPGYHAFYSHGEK [BMP2 Full peptide 747]
II: Ac-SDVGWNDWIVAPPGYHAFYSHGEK [BMP2 N-trun 1S peptide 751]
I need your help: which of the pair I , II has higher Flow-through K? To answer, give the label that identifies your chosen option.
I
